Tested On: UniProt:Q8IXJ6
Sequence (Q8IXJ6 whole entry): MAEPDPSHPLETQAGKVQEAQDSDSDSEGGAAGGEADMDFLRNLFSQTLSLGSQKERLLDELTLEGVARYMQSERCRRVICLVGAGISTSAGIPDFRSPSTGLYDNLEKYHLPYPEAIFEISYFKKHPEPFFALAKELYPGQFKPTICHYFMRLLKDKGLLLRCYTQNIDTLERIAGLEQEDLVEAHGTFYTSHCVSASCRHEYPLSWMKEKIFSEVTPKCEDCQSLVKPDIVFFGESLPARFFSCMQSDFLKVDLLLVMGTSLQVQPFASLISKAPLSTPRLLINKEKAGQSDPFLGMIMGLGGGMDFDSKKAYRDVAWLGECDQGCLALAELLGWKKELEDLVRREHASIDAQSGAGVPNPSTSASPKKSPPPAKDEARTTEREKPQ
Test: Inhibition of GST-SIRT2 at 200 uM after 1 hr by Fluor de Lys fluorescence assay
Threshold check on inhibition: at or above 10% gives 1.0, strictly below gives 0.0.

# Structure Notation, Tested On, Classification
records = [
    ("COC(=O)[C@H](C)NC(=O)[C@H](CCCCNC(C)=O)NC(=O)[C@H](C)NC(C)=O", "UniProt:Q8IXJ6", 1.0),
    ("COC(=O)[C@H](C)NC(=O)[C@H](CCCCNC(=O)CCl)NC(=O)[C@H](C)NC(C)=O", "UniProt:Q8IXJ6", 0.0),
    ("COC(=O)[C@H](C)NC(=O)[C@H](CCCCNC(=O)C1=CCCCC1)NC(=O)[C@H](C)NC(C)=O", "UniProt:Q8IXJ6", 1.0),
]

Check the entry CC(=[Se])NCCCC[C@H](NC(=O)OCc1ccccc1)C(=O)Nc1ccccc1 : does inhibition equal or exceed 10%?
1.0

Check the entry COC(=O)[C@H](C)NC(=O)[C@H](CCCCNC(=O)c1ccccc1)NC(=O)[C@H](C)NC(C)=O : does inhibition equal or exceed 10%?
1.0

Check the entry COC(=O)[C@H](C)NC(=O)[C@H](CCCCNS(=O)(=O)c1ccc(C)cc1)NC(=O)[C@H](C)NC(C)=O : does inhibition equal or exceed 10%?
0.0

Check the entry CC(=O)N[C@@H](C)C(=O)N[C@@H](CCCCNC(=O)C=C(C)C)C(=O)N[C@@H](C)C(=O)O : does inhibition equal or exceed 10%?
1.0

Check the entry C/C=C(\C)C(=O)NCCCC[C@H](NC(=O)[C@H](C)NC(C)=O)C(=O)N[C@@H](C)C(=O)OC : does inhibition equal or exceed 10%?
1.0

Check the entry CNC(=O)[C@H](C)NC(=O)[C@H](CCCCNC(=O)C(C)(C)C)NC(=O)[C@H](C)NC(C)=O : does inhibition equal or exceed 10%?
1.0

Check the entry COC(=O)NCCCC[C@H](NC(=O)[C@H](C)NC(C)=O)C(=O)N[C@@H](C)C(=O)OC : does inhibition equal or exceed 10%?
0.0

Check the entry COC(=O)[C@H](C)NC(=O)[C@H](CCCCNS(=O)(=O)c1ccc([N+](=O)[O-])cc1)NC(=O)[C@H](C)NC(C)=O : does inhibition equal or exceed 10%?
0.0

Check the entry CC(C)(C)OC(=O)NCCCC[C@H](NC(=O)OCc1ccccc1)C(=O)Nc1ccccc1 : does inhibition equal or exceed 10%?
1.0

Check the entry C/C=C/C(=O)NCCCC[C@H](NC(=O)[C@H](C)NC(C)=O)C(=O)N[C@@H](C)C(=O)OC : does inhibition equal or exceed 10%?
0.0

Check the entry COC(=O)[C@H](C)NC(=O)[C@H](CCCCNC(=O)C=C(C)C)NC(=O)[C@H](C)NC(C)=O : does inhibition equal or exceed 10%?
1.0

Check the entry CC(=O)N[C@@H](C)C(=O)N[C@@H](CCCCNC(=O)/C=C(/C)C(F)(F)F)C(=O)N[C@@H](C)C(=O)O : does inhibition equal or exceed 10%?
1.0

Check the entry COC(=O)[C@H](C)NC(=O)[C@H](CCCCNC(=O)Cc1cccnc1)NC(=O)[C@H](C)NC(C)=O : does inhibition equal or exceed 10%?
0.0

Check the entry COC(=O)[C@H](C)NC(=O)[C@H](CCCCNC(=O)c1cccnc1)NC(=O)[C@H](C)NC(C)=O : does inhibition equal or exceed 10%?
0.0
